biological target: seven human 14-3-3 isoforms; test: Affinities averaged or compared across the 14-3-3 family (ΔΔGav, KD ratios, affinity maps); assay type: binding; conditions: Figure 4 panel b; average over the isoforms
Starred links: 1 amine or outer side, 2 acyl side, 3 side chain; linkers in the order of their positions; H or OH if unused. Non-standard residues stand in square brackets, D forms with d. Residues, ends and D or L forms follow the SMILES beside them. *: point of attachment. X1 = O=C(CCCC[C@@H]1SC[C@@H]2NC(=O)N[C@@H]21)NCCCOCCOCCOCCCN*; pT = C[C@@H](OP(=O)(O)O)[C@H](N)C(=O)O; Suc = O=C(CCC(=O)[*:2])[*:1]
observable: KD ratios, compared to LRRK2 pS910/pS935, average
Numbers only.

Consider the reported KD ratios, compared to LRRK2 pS910/pS935, average for these compounds:
[[record]]
compound = "CC(C)C[C@H](NC(=O)[C@H](CCCNC(=N)N)NC(=O)CCC(=O)NCCCOCCOCCOCCCNC(=O)CCCC[C@@H]1SC[C@@H]2NC(=O)N[C@@H]21)C(=O)N[C@@H](CCC(N)=O)C(=O)N[C@@H](CCCNC(=N)N)C(=O)N[C@@H](CCCNC(=N)N)C(=O)N[C@@H](CCCNC(=N)N)C(=O)N[C@@H](CCC(=O)O)C(=O)N[C@H](C(=O)N[C@@H](CCC(N)=O)C(=O)N[C@H](C(=O)O)C(C)C)[C@@H](C)OP(=O)(O)O"
experimental_result = 4200.00

[[record]]
compound = "CC(C)[C@H](NC(=O)[C@H](C)NC(=O)[C@@H](NC(=O)[C@H](CCC(=O)O)NC(=O)[C@H](CCCNC(=N)N)NC(=O)[C@H](CCCNC(=N)N)NC(=O)[C@@H](NC(=O)[C@@H]1CCCN1C(=O)[C@H](CCCCN)NC(=O)[C@H](CO)NC(=O)CCC(=O)NCCCOCCOCCOCCCNC(=O)CCCC[C@@H]1SC[C@@H]2NC(=O)N[C@@H]21)[C@@H](C)O)[C@@H](C)OP(=O)(O)O)C(=O)O [pHPV35E6E-1A] ({X1-Suc}-SKPTRRE[pT]AV-OH)"
experimental_result = 2200.00

[[record]]
compound = "CC(C)C[C@H](NC(=O)[C@H](C)NC(=O)[C@@H](NC(=O)[C@H](CCC(=O)O)NC(=O)[C@H](CCCNC(=N)N)NC(=O)[C@H](CCCNC(=N)N)NC(=O)[C@H](CCCNC(=N)N)NC(=O)[C@H](CO)NC(=O)[C@H](CCCNC(=N)N)NC(=O)[C@H](CO)NC(=O)CCC(=O)NCCCOCCOCCOCCCNC(=O)CCCC[C@@H]1SC[C@@H]2NC(=O)N[C@@H]21)[C@@H](C)OP(=O)(O)O)C(=O)O [pHPV33E6] ({X1-Suc}-SRSRRRE[pT]AL-OH)"
experimental_result = 400.00


Now consider a different compound.
For record CC(C)C[C@H](NC(=O)[C@H](CCC(N)=O)NC(=O)[C@@H](NC(=O)[C@H](CCC(=O)O)NC(=O)[C@H](CCCNC(=N)N)NC(=O)[C@H](CCCNC(=N)N)NC(=O)[C@@H](NC(=O)[C@H](CCCNC(=N)N)NC(=O)[C@H](CO)NC(=O)[C@H](CO)NC(=O)CCC(=O)NCCCOCCOCCOCCCNC(=O)CCCC[C@@H]1SC[C@@H]2NC(=O)N[C@@H]21)[C@@H](C)O)[C@@H](C)OP(=O)(O)O)C(=O)O the listed KD ratios, compared to LRRK2 pS910/pS935, average is 13000
